assay: Fraction of total tissue amount present in the bilayer, calculated from Pb/w; settings: bilayer volume 2.5% of tissue volume, no protein binding
observation type: fraction of the total amount in the tissue present in the bilayer (%)
Numbers only here, please. The scale is %.

Field: example entries. Status: answers known.
- smiles notation: "Cc1cc(O)ccc1Cl"
  numeric readout: 97
- smiles notation: "c1ccc2[nH]ccc2c1"
  numeric readout: 81
- smiles notation: "CCCCCCO"
  numeric readout: 68
- smiles notation: "OCc1c2ccccc2cc2ccccc12"
  numeric readout: 99

## Input Tell us which fraction of the total amount in the tissue present in the bilayer value is on record for `BrCCc1ccccc1`
## Output 93
